Listing of recorded pIC50 by entry.
Target: TRAF6/Uev1A/Ubc13 (Homo sapiens, UniProt Q9Y4K3)
Sequence (Q9Y4K3 1-522): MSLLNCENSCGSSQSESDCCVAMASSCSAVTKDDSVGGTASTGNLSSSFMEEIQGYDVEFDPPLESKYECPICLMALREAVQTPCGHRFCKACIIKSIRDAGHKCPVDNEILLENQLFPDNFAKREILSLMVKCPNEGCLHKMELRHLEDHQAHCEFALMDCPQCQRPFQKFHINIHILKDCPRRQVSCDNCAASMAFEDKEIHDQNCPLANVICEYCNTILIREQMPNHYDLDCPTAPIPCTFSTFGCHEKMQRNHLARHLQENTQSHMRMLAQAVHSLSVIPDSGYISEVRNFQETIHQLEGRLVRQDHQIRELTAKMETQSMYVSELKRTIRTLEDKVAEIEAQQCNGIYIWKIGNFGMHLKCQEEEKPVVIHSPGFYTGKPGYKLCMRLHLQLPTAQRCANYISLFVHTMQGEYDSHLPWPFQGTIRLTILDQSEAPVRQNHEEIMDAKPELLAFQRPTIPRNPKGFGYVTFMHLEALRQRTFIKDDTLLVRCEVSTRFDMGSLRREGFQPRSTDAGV
Assay: TRAF6/Uev1A/Ubc13 plate-based ubiquitin ligase assay
Assay type: biochemical
pIC50: −log10 of the molar value.

These solved cases illustrate the format of a correct answer.
compound smiles: O=S(=O)(c1c(Cl)ccc2nonc12)N1CCN(c2ccc(Cl)c(C(F)(F)F)c2)CC1
pIC50: ≤ 4.70
//
compound smiles: O=C(Nc1cccc2nonc12)C1CN(c2ncccc2Cl)C1
pIC50: 4.70 to 6.00

INPUT: Consider the compound O=S(=O)(c1ccc(N2CCN(c3ncccc3C(F)(F)F)CC2)c2nonc12)N1CCN(c2ncccc2C(F)(F)F)CC1 and give its measured pIC50.
OUTPUT: 4.70 to 6.00

----------
Biological target: TRAF6/Uev1A/Ubc13 (Homo sapiens, UniProt Q9Y4K3)
Sequence (Q9Y4K3 1-522): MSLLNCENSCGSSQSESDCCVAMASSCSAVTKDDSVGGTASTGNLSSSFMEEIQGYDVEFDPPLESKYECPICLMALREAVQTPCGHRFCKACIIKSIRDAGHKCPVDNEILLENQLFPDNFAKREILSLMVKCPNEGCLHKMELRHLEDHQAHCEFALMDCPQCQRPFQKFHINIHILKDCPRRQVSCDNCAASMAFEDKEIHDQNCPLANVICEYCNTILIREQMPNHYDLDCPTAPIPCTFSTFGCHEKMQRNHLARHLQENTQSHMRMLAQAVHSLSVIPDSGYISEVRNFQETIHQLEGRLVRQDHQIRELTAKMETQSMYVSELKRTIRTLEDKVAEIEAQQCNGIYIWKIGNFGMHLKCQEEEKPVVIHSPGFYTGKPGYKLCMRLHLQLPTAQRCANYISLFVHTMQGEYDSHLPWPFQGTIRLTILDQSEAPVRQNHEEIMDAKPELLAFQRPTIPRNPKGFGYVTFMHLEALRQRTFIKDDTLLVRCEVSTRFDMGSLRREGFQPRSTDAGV
Assay: TRAF6/Uev1A/Ubc13 plate-based ubiquitin ligase assay
pIC50: −log10 of the molar value.
endpoint: pIC50

molecule: O=S(=O)(Nc1cccc2ccccc12)c1c(Cl)cc(Cl)c2nonc12
observed measurement: 4.70 to 6.00

molecule: O=S(=O)(c1ccc(Sc2ccc3ccccc3n2)c2nonc12)N1CCC(O)(c2ccc(Cl)cc2)CC1
observed measurement: ≤ 4.70

molecule: O=S(=O)(c1ccc(Sc2ccc3ccccc3n2)c2nonc12)N1CCN(c2ccccc2)CC1
observed measurement: ≤ 4.70

molecule: O=S(=O)(c1c(N2CCN(c3ccc(Cl)c(C(F)(F)F)c3)CC2)ccc2nonc12)N1CCN(c2ccc(Cl)c(C(F)(F)F)c2)CC1
observed measurement: 4.70 to 6.00

molecule: CC1CC(C)CN(c2ccc(S(=O)(=O)N3CC(C)CC(C)C3)c3nonc23)C1 (centres unmarked)
observed measurement: 4.70 to 6.00

INPUT: // query pIC50 value for entry CC(=O)N1CCN(S(=O)(=O)c2c(Sc3cccc4cccnc34)ccc3nonc23)CC1
OUTPUT: 4.70 to 6.00

INPUT: Quick check: pIC50 of COc1ccc(-c2ccc([N+](=O)[O-])c3nonc23)cc1OC ?
OUTPUT: ≤ 4.70

INPUT: Using the record for O=S(=O)(c1ccc(Cl)c2nonc12)N1CCC(Oc2ccccc2C(F)(F)F)CC1 , report its pIC50.
OUTPUT: 4.70 to 6.00

INPUT: Please give the measured pIC50 for this molecule: O=S(=O)(Nc1cccc2ccccc12)c1c(Nc2cccc3ccccc23)cc(Cl)c2nonc12
OUTPUT: 4.70 to 6.00

INPUT: Sample O=S(=O)(c1ccc(Sc2ccncc2)c2nonc12)N1CCN(c2ccccc2)CC1 — what was its pIC50?
OUTPUT: ≤ 4.70

INPUT: Please report the recorded pIC50 for Cc1cc(F)ccc1Nc1ccc(S(=O)(=O)Nc2ccc(F)cc2C)c2nonc12 .
OUTPUT: 4.70 to 6.00

INPUT: Would you mind telling me what pIC50 value was observed for O=S(=O)(c1ccc(Sc2cccc3cccnc23)c2nonc12)N1CCN(c2ncc(C(F)(F)F)cc2Cl)CC1 ?
OUTPUT: 4.70 to 6.00

INPUT: What does the record list as pIC50 for Fc1c(N2CCOCC2)cc2nonc2c1F ?
OUTPUT: ≤ 4.70

INPUT: Look up pIC50: O=[N+]([O-])c1ccc(N2CCC(Oc3ccccc3C(F)(F)F)CC2)c2nonc12
OUTPUT: > 6.00

INPUT: Find the recorded pIC50 belonging to O=[N+]([O-])c1ccc(N2CCC(Oc3ncccn3)CC2)c2nonc12 and report it.
OUTPUT: ≤ 4.70

INPUT: Given Oc1ccc2c(c1)cc(Cl)c1nonc12 , state its recorded pIC50.
OUTPUT: ≤ 4.70

INPUT: Find the recorded pIC50 belonging to Cc1cccc(-c2cc(N3CCCCC3)c([N+](=O)[O-])c3nonc23)c1 and report it.
OUTPUT: ≤ 4.70
